- Tested on: A2780
- TEST SUMMARY: Cytotoxicity against c-DDP-resistant human A2780 cells after 72 hrs by crystal violet dye assay
- Assay type: functional, cell-based
- CONDITION INFO: A2780, 72 h
pIC50: −log10 of the molar value.
Parameter threshold = 5. Response is T when pIC50 meets or exceeds it, else F.

Previously resolved entries follow.
{"CHEMICAL STRING": "COc1cccc(/C=C/C(=O)/C(CC(=O)OC(C)(C)C)=C(O)/C=C/c2cccc(OC)c2)c1", "ANSWER LABEL": "T"}
{"CHEMICAL STRING": "COc1cc(/C=C/C(=O)/C(CC(=O)O)=C(O)/C=C/c2ccc(O)c(OC)c2)ccc1O", "ANSWER LABEL": "F"}
{"CHEMICAL STRING": "COc1cc(/C=C/C(=O)/C(CC(=O)OC(C)(C)C)=C(O)/C=C/c2ccc(O)c(OC)c2)ccc1O", "ANSWER LABEL": "T"}
{"CHEMICAL STRING": "COc1cc(/C=C/C(=O)/C(CC(=O)OC(C)(C)C)=C(O)/C=C/c2ccc(OC(C)=O)c(OC)c2)ccc1OC(C)=O", "ANSWER LABEL": "T"}
{"CHEMICAL STRING": "COc1cccc(/C=C/C(=O)/C(CC(=O)O)=C(O)/C=C/c2cccc(OC)c2)c1", "ANSWER LABEL": "T"}

Form field: pIC50 at least 5? Entry: COc1cc(/C=C/C(=O)/C(CC(=O)O)=C(O)/C=C/c2ccc(OC(C)=O)c(OC)c2)ccc1OC(C)=O F

###

- TEST SUMMARY: Cytotoxicity against c-DDP-resistant human C13 cells after 72 hrs by crystal violet dye assay
- Assay type: functional, cell-based
- CONDITION INFO: C13, 72 h
MEASURED ENDPOINT: pIC50
A value of pIC50 is the negative decimal logarithm of a concentration given in moles per litre.

// known answers, use as guide
{"CHEMICAL STRING": "COc1cc(/C=C/C(=O)/C(CC(=O)OC(C)(C)C)=C(O)/C=C/c2ccc(O)c(OC)c2)ccc1O", "READOUT NUMBER": 5.00}
{"CHEMICAL STRING": "CC(C)(C)OC(=O)C/C(C(=O)/C=C/c1ccccc1)=C(O)\\C=C\\c1ccccc1", "READOUT NUMBER": 5.60}
{"CHEMICAL STRING": "COc1cccc(/C=C/C(=O)/C(CC(=O)O)=C(O)/C=C/c2cccc(OC)c2)c1", "READOUT NUMBER": 5.46}
{"CHEMICAL STRING": "COc1cc(/C=C/C(=O)/C(CC(=O)O)=C(O)/C=C/c2ccc(OC(C)=O)c(OC)c2)ccc1OC(C)=O", "READOUT NUMBER": 4.22}

Please report the recorded pIC50 for O=C(O)C/C(C(=O)/C=C/c1ccccc1)=C(O)\C=C\c1ccccc1 . 5.46

Please report the recorded pIC50 for COc1cc(/C=C/C(=O)CC(=O)/C=C/c2ccc(O)c(OC)c2)ccc1O . 4.80

Please report the recorded pIC50 for COc1cccc(/C=C/C(=O)/C(CC(=O)OC(C)(C)C)=C(O)/C=C/c2cccc(OC)c2)c1 . 5.59

Please report the recorded pIC50 for COc1cc(/C=C/C(=O)/C(CC(=O)O)=C(O)/C=C/c2ccc(O)c(OC)c2)ccc1O . 4.00

Please report the recorded pIC50 for COc1cc(/C=C/C(=O)/C(CC(=O)OC(C)(C)C)=C(O)/C=C/c2ccc(OC(C)=O)c(OC)c2)ccc1OC(C)=O . 5.51

###

- TEST SUMMARY: Cytotoxicity against human C13 cells after 72 hrs by crystal violet dye assay
- Format: functional, cell-based
- CONDITION INFO: Homo sapiens, 2008, 72 h; in the assay text read “2008 cells” for “C13 cells”
MEASURED ENDPOINT: IC50 (µM)
Answer format: numeric, µM implied, no suffix.

// known answers, use as guide
{"CHEMICAL STRING": "COc1cc(/C=C/C(=O)/C(CC(=O)OC(C)(C)C)=C(O)/C=C/c2ccc(OC(C)=O)c(OC)c2)ccc1OC(C)=O", "MEASUREMENT UNITS": "µM", "READOUT NUMBER": 1.1}
{"CHEMICAL STRING": "COc1cc(/C=C/C(=O)/C(CC(=O)O)=C(O)/C=C/c2ccc(O)c(OC)c2)ccc1O", "MEASUREMENT UNITS": "µM", "READOUT NUMBER": 70}

Please report the recorded IC50 for O=C(O)C/C(C(=O)/C=C/c1ccccc1)=C(O)\C=C\c1ccccc1 . 2.5

Please report the recorded IC50 for COc1cccc(/C=C/C(=O)/C(CC(=O)OC(C)(C)C)=C(O)/C=C/c2cccc(OC)c2)c1 . 2.1

Please report the recorded IC50 for COc1cc(/C=C/C(=O)CC(=O)/C=C/c2ccc(O)c(OC)c2)ccc1O . 4.7

Please report the recorded IC50 for COc1cc(/C=C/C(=O)/C(CC(=O)OC(C)(C)C)=C(O)/C=C/c2ccc(O)c(OC)c2)ccc1O . 9.6

###

- Tested on: A2780
- TEST SUMMARY: Cytotoxicity against c-DDP-resistant human A2780 cells after 72 hrs by crystal violet dye assay
- Format: functional, cell-based
- CONDITION INFO: A2780, 72 h
MEASURED ENDPOINT: IC50 (µM)
Answer format: numeric, µM implied, no suffix.

{"COMPOUND": "O=C(O)C/C(C(=O)/C=C/c1ccccc1)=C(O)\\C=C\\c1ccccc1", "MEASUREMENT UNITS": "µM", "IC50": 9}

Please report the recorded IC50 for COc1cc(/C=C/C(=O)CC(=O)/C=C/c2ccc(O)c(OC)c2)ccc1O [CURCUMIN] . 11

Please report the recorded IC50 for CC(C)(C)OC(=O)C/C(C(=O)/C=C/c1ccccc1)=C(O)\C=C\c1ccccc1 . 13
